Tested on: HepG2
Assay remarks: cell viability relative to DMSO; higher = less toxic
Applied conditions: 72 h; 1 nM
Value type: cell viability (%)
Field: numeric (%). Do not append units.

Example entries and their recorded answers appear below.
| Compound | Units symbol | cell viability |
| --- | --- | --- |
| CCCc1c2oc(C(=O)O)cc(=O)c2cc2c(=O)cc(C(=O)O)n(CC)c12 | % | 113 |
| c1ccc2c(c1)CCCC2C1=NCCN1 (stereo not given) [tetrahydrozoline] | % | 93 |
| Cc1cccn2c(=O)c(-c3nnn[nH]3)cnc12 | % | 102 |

Problem: Return reported cell viability; argument: O=C1CCCN1CC#CCN1CCCC1 [oxotremorine-sesquifumarate]
Solution: 101

Problem: Also need `Cc1[nH]c(=O)c(C#N)cc1-c1ccc2nccn2c1` , thanks.
Solution: 93.2

Problem: Also need `Cc1nc2ccccc2n1Cc1ccc(Cl)cc1` , thanks.
Solution: 92.3

Problem: Also need `O=C(c1ccccn1)c1cnn2c(-c3ccncc3)ccnc12` , thanks.
Solution: 108

Problem: Also need `CC(C)(N)Cc1ccccc1` , thanks.
Solution: 98.5

Problem: Also need `Cc1cc(C)cc(C(=O)N(C)[C@H](Cc2ccc(-c3ccccc3)cc2)C(=O)N[C@@H](Cc2c[nH]c3ccccc23)C(=O)O)c1` , thanks.
Solution: 92.5

Problem: Also need COc1cc2c(c(OC)c1OC)-c1c(cc3c(c1OC)OCO3)CC(C)C(C)C2 (stereo not given) , thanks.
Solution: 89.1

====

System: U2OS
Assay remarks: cell viability relative to DMSO; higher = less toxic
Applied conditions: 72 h; 100 nM
Value type: cell viability (%)
Field: numeric (%). Do not append units.

Example entries and their recorded answers appear below.
| Compound | Units symbol | Test result |
| --- | --- | --- |
| COc1ccc2[nH]cc(C3=CCNCC3)c2c1 | % | 96 |
| CC(C)Cc1ccc([C@@H](C)C(=O)NCCO)cc1 (racemic) | % | 103 |

Problem: Return reported cell viability; argument: `O=C(/C=C/c1ccc(O)c2c1[C@H](C(=O)O[C@H](Cc1ccc(O)c(O)c1)C(=O)O)[C@@H](c1ccc(O)c(O)c1)O2)O[C@H](Cc1ccc(O)c(O)c1)C(=O)O`
Solution: 97.5

Problem: Also need `CCOc1cc(C=O)ccc1O` , thanks.
Solution: 96.2

Problem: Also need `C[n+]1c2cc(N)ccc2cc2ccc(N)cc21.Nc1ccc2cc3ccc(N)cc3nc2c1` , thanks.
Solution: 96.6

Problem: Also need `COc1ccc(CCN(C)CCCN2CCc3cc(OC)c(OC)cc3CC2=O)cc1OC` , thanks.
Solution: 99.1

Problem: Also need `CCCCOc1ccc(-c2cncc(C(=O)NCc3cccnc3N3CCOCC3)c2)cc1Cl` , thanks.
Solution: 99.5

====

Entries and their cell viability values follow.
System: U2OS
Assay remarks: cell viability relative to DMSO; higher = less toxic
Applied conditions: 72 h; 1 nM
Structures can show the parent of a compound that is named as a salt.
Field: numeric (%). Do not append units.

Example entries and their recorded answers appear below.
| Compound | Units symbol | cell viability |
| --- | --- | --- |
| CC(C)(CO)[C@@H](O)C(=O)NCCC(=O)O | % | 95.9 |
| CN1C2CCC1CC(OC(c1ccccc1)c1ccc(Cl)cc1)C2 (stereo not drawn) | % | 104 |
| O=C(O[C@H]1CN2CCC1CC2)N(Cc1cc(F)c(F)c(F)c1)c1cccc(F)c1 | % | 95.7 |

Let's switch to this compound now.
Problem: Return reported cell viability; argument: O=C1CC[C@@]2(O)[C@H]3Cc4ccc(O)c5c4[C@@]2(CCN3CC2CC2)[C@H]1O5 [NALTREXONE HYDROCHLORIDE]
Solution: 102

FYI, the data here is from the supplement of paper PMC13380429.
